Target: MGL (Rattus norvegicus, UniProt Q8R431)
Construct: one g rat brain was homogenized using a Polytron homogenizer; from tissue; host or cells: rat brain homogenate
Sequence (Q8R431 whole entry): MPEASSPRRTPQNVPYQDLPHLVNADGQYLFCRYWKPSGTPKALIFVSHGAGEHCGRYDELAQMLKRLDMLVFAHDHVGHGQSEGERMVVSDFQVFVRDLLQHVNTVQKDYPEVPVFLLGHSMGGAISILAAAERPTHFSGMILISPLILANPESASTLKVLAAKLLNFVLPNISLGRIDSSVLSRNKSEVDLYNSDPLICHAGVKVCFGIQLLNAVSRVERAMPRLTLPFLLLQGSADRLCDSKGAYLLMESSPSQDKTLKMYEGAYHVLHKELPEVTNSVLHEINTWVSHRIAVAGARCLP
Experiment: 2-AG accumulation assay in rat brain homogenate
Assay type: biochemical
Details: rat brain homogenate; compound 1 μM; 2-AG accumulation as percent of vehicle; read-out: Rat Brain 2AG % VehCntrl (%) @ 1 μM
The following compounds are shown together with reported 2-AG accumulation, % of vehicle control at 1 µM values.
outcome.measure: 2-AG accumulation, % of vehicle control at 1 µM

smiles.input	endpoint.value
Cc1c(C(=O)N2CC(N3CCN(C(=O)c4nccs4)CC3)C2)[nH]c2ccc(-c3ccc(F)cc3)cc12	833%
Cc1cc(-c2ccc(Cl)c(C(F)(F)F)c2)ccc1C(=O)N1CC(N2CCN(C(=O)c3cscn3)CC2)C1	544%
O=C(c1ccc2nc(-c3ccc(F)c(F)c3)oc2c1)N1CC(N2CCN(C(=O)c3cscn3)CC2)C1	292%
O=C(c1ccc2c(c1)CCN(Cc1ccccc1)C2)N1CC(N2CCN(C(=O)c3nccs3)CC2)C1	356%
O=C(c1cscn1)N1CCN(C2CN(C(=O)c3ccc(-c4cccc(C(F)(F)F)c4)cc3F)C2)CC1	518%
O=C(c1ccc(-c2ccc(C(F)(F)F)s2)cc1)N1CC(N2CCN(C(=O)c3nccs3)CC2)C1	994%
Cn1ccc2cc(C(=O)N3CC(N4CCN(C(=O)c5nccs5)CC4)C3)cc(-c3ccc(F)cc3)c21	501%
